All figures here come from PubChem BioAssay (NCI).

test system: LOX IMVI melanoma; test: NCI-60 one-dose screen, 48 h (100 = growth as untreated, 0 = no growth, -100 = all killed); conditions: 10 µM unless noted
This is part of a sample that, as a whole, favours compounds with a hit. Of some 83,000 tested, about 20% had one in any assay.
REPORTED ENDPOINT: growth (%)

- Clc1cc(Cl)cc(N2N=C(c3cccc(Nc4ccncc4)c3)CC2c2ccccc2)c1 (stereo not drawn): -81.2
- NS(=O)(=O)c1cccc(NC(=O)C(=O)C2C(=O)Nc3ccccc32)c1 (stereo not drawn): 95.6
- CC1(C)CCCN1CCCN1c2ccccc2Sc2ccc(Cl)cc21: 57.9

###

Measured growth values are reported for all entries that follow.
system: SK-MEL-2 melanoma; assay: NCI-60 one-dose screen, 48 h (100 = growth as untreated, 0 = no growth, -100 = all killed); conditions: 10 µM unless noted
This is part of a sample that, as a whole, favours compounds with a hit. Of some 83,000 tested, about 20% had one in any assay. Active and inactive are the calls of the source. Rule for the calls: active = growth percent below 10; inactive = the rest.
REPORTED ENDPOINT: growth

* CCc1c(Nc2ccc(C)cc2)[nH]c(N)nc1=S | 103% (inactive)
* O=C(CN1CCOCC1)Nc1ccc2ncnc(Nc3ccc(Oc4cccc(C(F)(F)F)c4)c(Cl)c3)c2c1 | 75.9% (inactive)
* COC(=O)N[C@H]1CCc2cc(OC)c(OC)c(OC)c2-c2ccc(SC)c(=O)cc21 | 12.5% (inactive)
* COc1c(Cl)cc(Cl)c2ccc(C=C3C(=O)N(C)C(=O)N(C)C3=O)nc12 | 107% (inactive)
* Clc1ccc(N2N=C(c3cccc(Nc4ccncc4)c3)CC2c2ccc(Br)cc2)cc1 (stereo not given) | 94.7% (inactive)

###

tested on: A549/ATCC NSCLC; test: NCI-60 one-dose screen, 48 h (100 = growth as untreated, 0 = no growth, -100 = all killed); conditions: 10 µM unless noted
The panel holds about 83,000 compounds, 20% with a hit somewhere; the sample as a whole holds those more often. Activity calls are given as the source filed them. The calls were made as follows: active = growth percent below 10; inactive = the rest.
Measured growth values are reported for all entries that follow.
REPORTED ENDPOINT: growth

- CCCCCCCCCCCC(=O)C(CCCCCCCCCC)C(=O)Nc1ccccc1 (stereo not given): 91.2% (inactive)
- O=C(/C=C\c1ccc(OCCCCCC[P+](c2ccccc2)(c2ccccc2)c2ccccc2)cc1)c1ccc2c(c1)OCCO2: 12.1% (inactive)
- CC1(C)CCCN1CCCN1c2ccccc2Sc2ccc(Cl)cc21: 83.8% (inactive)
- COc1ccc(Cl)cc1NC(=O)c1c(NC(=O)C(F)(F)C(F)(F)F)sc2c1CCCCC2: 7.89% (active)
- COc1cnccc1-c1nc2ccc3[nH]ncc3c2c2c1CCCC2: 47.6% (inactive)

###

system: M14 melanoma; assay: NCI-60 one-dose screen, 48 h (100 = growth as untreated, 0 = no growth, -100 = all killed); settings: 10 µM unless noted
This is part of a sample that, as a whole, favours compounds with a hit. Of some 83,000 tested, about 20% had one in any assay.
Measured growth values are reported for all entries that follow.
REPORTED ENDPOINT: growth (%)

* NC(=O)c1cccc(-c2ccccc2N2CCCCC2)c1 | 94.6
* CO[C@@H]1[C@H](N(C)C(=O)c2ccccc2)C[C@@H]2O[C@]1(C)n1c3ccccc3c3c4c(c5c6ccccc6n2c5c31)C(=O)NC4=O | 37.1
* CCN(CC)S(=O)(=O)c1cccc([N+](=O)[O-])c1 | 84.9
* COc1ccccc1/C=C1\COc2ccc(-c3ccccc3)cc2C1=O | 17.4
* c1ccc(C2CC(c3cccc(Nc4ccncc4)c3)=NN2c2ccccc2)cc1 (stereo not drawn) | -57.4
* CC1(C)CC[C@]2(C(=O)NCC#CCN3CCOCC3)CC[C@]3(C)C(=CC[C@@H]4[C@@]5(C)Cc6c([nH]c7ccccc67)C(C)(C)[C@@H]5CC[C@]43C)[C@@H]2C1 | 80.7
* COc1ccc(/C=N/C2=C(C#N)C(c3ccccc3[N+](=O)[O-])c3ccc4ccccc4c3O2)cc1 (stereo not drawn) | 90.4
* CC(=O)OCC(=O)C1(O)C(C)CC2C3C=C(C)C4=Cc5c(cnn5-c5ccccc5)CC4(C)C3C(O)CC21C (stereo not drawn) | -4.56

###

Measured growth values are reported for all entries that follow.
tested on: HOP-92 NSCLC; experiment: NCI-60 one-dose screen, 48 h (100 = growth as untreated, 0 = no growth, -100 = all killed); settings: 10 µM unless noted
This is part of a sample that, as a whole, favours compounds with a hit. Of some 83,000 tested, about 20% had one in any assay.
REPORTED ENDPOINT: growth (%)

- COc1cc2nc(-c3ccc(C(F)(F)F)cc3)cc(OCCCN3CCC(O)CC3)c2cc1OC: 19.9
- CCOC(=O)c1ccc(Nc2ccnc(SCC(=O)c3ccc(C#N)cc3)n2)cc1: 105
- COc1cc(-c2nc3sccn3c2-c2ccnc(NCCNS(=O)(=O)c3ccc(F)cc3)n2)ccc1F: 18.8
- Cc1ccc(C2C3CC4CCCCC4N3[C@@]3(C(=O)Nc4cc(Cl)ccc43)C2C(=O)c2nc3ccccc3[nH]2)cc1 (some centres undefined): 44.1
- COc1c(Cl)cc(Cl)c2ccc(C=C3C(=O)N(C)C(=O)N(C)C3=O)nc12: 119
- CN1CCN(c2c(F)cc(NC3=C(Cl)C(=O)c4ncccc4C3=O)cc2F)CC1: 41
- COc1cnccc1-c1nc2ccc3[nH]ncc3c2c2c1CCCC2: 69.2
- CCn1ccnc1C(=O)/C=C/c1ccc(CC(=O)Nc2ccc(F)cc2)cc1: 62.8
- Nc1c(C(=O)Nc2cccc3ccncc23)sc2nc3c(cc12)C(=O)CCC3: 69.6
- COc1cc2nc(-c3ccc(C#N)cc3)[nH]c(=O)c2cc1OC: 127
- NC(=S)N/N=C/c1ccc(OC(=O)COc2cc(Cl)c(Cl)cc2Cl)cn1: 48.6
- CCCCCCNC(=O)Oc1ccc(/C(=C(/CC)Cc2ccccc2)c2ccc(OCCN(CC)CC)cc2)cc1: 42.3
- COc1ccncc1C#Cc1cncc(C(=O)Nc2ccc(CN3CCN(C)CC3)c(C(F)(F)F)c2)c1: -2.19
- Clc1cc(Cl)cc(N2N=C(c3cccc(Nc4ccncc4)c3)CC2c2ccc3c(c2)OCO3)c1 (centres undefined): 57.9
- COc1ccc(C(=O)c2cc3c(N)c(C(=O)Nc4cccc(OC)c4)sc3nc2C)cc1: 85.3
- NC(=O)c1ccc[n+](CC(=O)N2CCN(c3cc4c(cc3F)c(=O)c(C(=O)O)cn4C3CC3)CC2)c1: 133
- COc1ccc(-c2cnnc3c(-c4cccc(C(F)(F)F)c4)cnn23)cc1: 52.7
- COc1cc(NCCCN(CC(C)C)CC(C)C)c2ncccc2c1: 84.2
- CC1(C)NCCC[C@]2(C)[C@H]3CC=C4[C@@H]5C[C@@](C)(CO)CC[C@]5(C)CC[C@@]4(C)[C@]3(C)CC[C@@H]12: 38.3

###

tested on: MDA-MB-231 breast; test: NCI-60 one-dose screen, 48 h; conditions: 10 µM unless noted
This is part of a sample that, as a whole, favours compounds with a hit. Of some 83,000 tested, about 20% had one in any assay. The source made the active and inactive calls. How the source made its calls: active means growth percent below 10; inactive means the rest.
Outcomes: true for active, false for inactive

- CCN1C(=O)N(CC)C2C1NN=c1s/c(=C3\C(=O)Nc4ccccc43)c(=O)n12 (centres undefined): false
- C[C@H]1[C@H](C)CC[C@]2(CO)CC[C@]3(C)C(=CC[C@@H]4[C@@]5(C)CCCNC(C)(C)[C@@H]5CC[C@]43C)[C@H]12: true
- CC(C)C1C2=C(NCCN1C(=O)Cc1ccccc1)C(C)(C)N(Cc1ccccc1)C2=O (centres undefined): false
- CN1CCN(C(=O)OCc2nc3c(N4CCOCC4)nc(-c4ccccc4)nc3n2C)CC1: true
- COc1cc(C2CC(c3cccc(Nc4ccncc4)c3)=NN2c2ccccc2)cc(OC)c1OC (centres undefined): false
- Cc1ccc2[nH]c(=O)cc(-n3nncc3COc3ccc(C=O)cc3)c2c1: false
- COc1ccc(C(=O)c2cc3c(N)c(C(=O)Nc4cccc5ccccc45)sc3nc2C)cc1: false
- CCC(=O)c1ccc(O)c(OC)c1: false
- O=C(O)C(/C=C/c1ccco1)=N\Nc1nc(-c2ccc(Cl)cc2)cs1: false

###

tested on: MALME-3M melanoma; assay: NCI-60 one-dose screen, 48 h; conditions: 10 µM unless noted
This is part of a sample that, as a whole, favours compounds with a hit. Of some 83,000 tested, about 20% had one in any assay. The source made the active and inactive calls. How the source made its calls: active means growth percent below 10; inactive means the rest.
Outcomes: active, inactive

• CCNC(=O)c1[nH]cc(-c2ccc(OC)cc2)c1-c1cc(OC)cc(OC)c1 = inactive
• COc1cc2nnn3c4ncccc4c(N=O)c3c2cc1OC = inactive
• Cc1n[nH]c(C)c1-c1c(C)n[nH]c1C = active
• CC(=O)CCSc1ccc(OC(C)=O)cc1 = inactive
• O=C(/C=C/c1ccc[nH]1)c1ccc(-n2ccc(C(F)(F)F)n2)cc1 = inactive
• NC(=O)c1ccc[n+](CC(=O)N2CCN(c3cc4c(cc3F)c(=O)c(C(=O)O)cn4C3CC3)CC2)c1 = active
• COc1ccc(C(=O)c2cc(C)c(OC)c(C)c2)c(OC)c1O = inactive
• [2H]C1([2H])NC([2H])([2H])C([2H])([2H])N(c2ccc(Nc3ncc4cc(C(=O)N(C)C)n(C5CCCC5)c4n3)nc2)C1([2H])[2H] = inactive
• C[C@H]1[C@H](C)CC[C@]2(CO)CC[C@]3(C)C(=CC[C@@H]4[C@@]5(C)Cc6c([nH]c7ccccc67)C(C)(C)[C@@H]5CC[C@]43C)[C@H]12 = inactive
• CC(c1ccccc1)n1ccnc1CO (centres undefined) = inactive
• COc1nc(N)nc(-n2c(-c3ccc(C)cc3)nc3ccccc32)c1NCc1ccc(C)cc1 = inactive
• COc1ccc(/C=C/C(=O)c2ccc(Nc3ncnc4ccccc34)cc2)cc1OC = inactive
• Cc1c2c(cc[n+]1Cc1ccc(F)cc1)c1ccc(OCc3cccc(F)c3)cc1n2Cc1cccc(F)c1 = active
• Nc1ccccc1NC(=O)c1ccc(CN2CCC/C(=C\c3cccc(Cl)c3)C2=O)cc1 = inactive
• COc1ccc(C(=O)c2cc3c(N)c(C(=O)Nc4cccc(OC)c4)sc3nc2C)cc1 = inactive
• CO[C@@H]1[C@H](N(C)C(=O)c2ccccc2)C[C@@H]2O[C@]1(C)n1c3ccccc3c3c4c(c5c6ccccc6n2c5c31)C(=O)NC4=O = inactive
• COc1ccc(-c2nc(N/N=C/c3cccc(O)c3)nc(N3CCOCC3)c2C#N)cc1 = inactive
• Cn1c2c(Cl)c(Cl)ccc2c2cc(N)[nH]c(=O)c21 = inactive
• COc1cc(Nc2cc(O)c3c(=O)cc(-c4ccccc4)oc3c2)cc(OC)c1 = inactive
